Origin of measurements: ChEMBL document CHEMBL1126459

- target.of.assay: D(2) dopamine receptor (Rattus norvegicus, UniProt P61169)
- Sequence (P61169 whole entry): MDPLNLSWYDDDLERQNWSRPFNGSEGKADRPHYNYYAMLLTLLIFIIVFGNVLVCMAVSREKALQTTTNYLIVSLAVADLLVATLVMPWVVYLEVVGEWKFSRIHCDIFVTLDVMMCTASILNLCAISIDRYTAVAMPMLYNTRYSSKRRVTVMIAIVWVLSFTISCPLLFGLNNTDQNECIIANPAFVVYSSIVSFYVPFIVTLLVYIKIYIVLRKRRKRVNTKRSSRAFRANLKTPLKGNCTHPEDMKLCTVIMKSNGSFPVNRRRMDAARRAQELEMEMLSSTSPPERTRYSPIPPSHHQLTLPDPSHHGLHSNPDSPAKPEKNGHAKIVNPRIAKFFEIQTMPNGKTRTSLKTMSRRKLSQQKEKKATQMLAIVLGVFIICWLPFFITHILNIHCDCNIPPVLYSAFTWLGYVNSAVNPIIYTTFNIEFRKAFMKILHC
- test.details: Compound was tested against Dopamine receptor D2 by displacement of [125I]iodosulpiride radioligand from rat D2 clones
attribute.measured: IC50 (µM)
Field: numeric (µM). Do not append units.

[ask] Entry COc1cc(N)c(Cl)cc1C(=O)NC[C@H]1CCC2CCCCN2C1 (stereo partly specified) has what IC50?
[reply] 3.9

---

- test.details: Selectivity at Dopamine receptors compared to 5-HT receptors.
- Format: functional
Reported Ratio values follow for various compounds
Form rule: numeric answer, no unit written next to it.

Here's what some known entries look like.
- compound: "COc1cc(N)c(Cl)cc1C(=O)NC1CCN2CCCCC12 (single isomer, unassigned)"
  Ratio: 0.4
- compound: "COc1cc(N)c(Cl)cc1C(=O)NC1CCN2C(C)CCCC2C1 (stereo in doubt; 2)"
  Ratio: 50
- compound: "COc1cc(N)c(Cl)cc1C(=O)NC1CCN2CCCC2C1 (stereo in doubt; 8 (Eq))"
  Ratio: 1.2

[ask] Entry COc1cc(N)c(Cl)cc1C(=O)NC1CCCN2CCCCC2C1 (single isomer, unassigned; form 2) has what Ratio?
[reply] 38

[ask] Would you kindly repeat that for COc1cc(N)c(Cl)cc1C(=O)NC1CC(C)N2CCCC2C1 (stereo in doubt; 29) ?
[reply] 34

[ask] Would you kindly repeat that for COc1cc(N)c(Cl)cc1C(=O)NC1CCN2C(C)CCC2C1 (stereo not drawn) ?
[reply] 30

[ask] Would you kindly repeat that for CCN(CC)CCNC(=O)c1cc(Cl)c(N)cc1OC [METOCLOPRAMIDE] ?
[reply] 0.8

[ask] Would you kindly repeat that for COc1cc(N)c(Cl)cc1C(=O)NC1CCN2CCCCC12 (stereo in doubt) ?
[reply] 1.8

---

- Test system: Mus musculus
- test.details: Dopamine antagonist activity expressed as inhibition of apomorphine-induced climbing in mice, subcutaneous administration
- Assay type: functional
attribute.measured: ED50

- compound: "COc1cc(N)c(Cl)cc1C(=O)NCC1CCC2CCCCN21 (stereo in doubt)"
  ED50: "20 mg/kg"
- compound: "COc1cc(N)c(Cl)cc1C(=O)NC1CC2CCCCN2C1 (single isomer, unassigned; form 2)"
  ED50: "0.1 mg/kg"
- compound: "COc1cc(N)c(Cl)cc1C(=O)NC1CC(C)N2CCCC2C1 (stereo in doubt; 30)"
  ED50: ">50 mg/kg"

Now look at this one.
[ask] Entry COc1cc(N)c(Cl)cc1C(=O)NC1CC(C)N2CCCC2C1 (stereo in doubt; 29) has what ED50?
[reply] 34 mg/kg

---

- Test system: Rattus norvegicus
- test.details: Prokinetic activity expressed as stimulation of intragastric pressure in rat at the lowest active dose in mg/kg on subcutaneous administration.
- Type: functional
Reported Activity values follow for various compounds
Field: numeric (mg/kg). Do not append units.

[ask] Give Activity (Rattus norvegicus) of the following compound: CCCC1CCCC2CC(NC(=O)c3cc(Cl)c(N)cc3OC)CCN12 (centres undefined)
[reply] 1

---

- Test system: Mus musculus
- test.details: Dopamine antagonist activity expressed as inhibition of apomorphine-induced climbing in mice, subcutaneous administration
- Format: functional
- experimental.setup: Mus musculus, sc; read-out: ED50
attribute.measured: ED50 (mg/kg)
Field: numeric (mg/kg). Do not append units.

- compound: "COc1cc(N)c(Cl)cc1C(=O)NC1CCN2CCCC2C1 (stereo in doubt; 8 (Eq))"
  unit: "mg/kg"
  ED50: 6

Now look at this one.
[ask] Entry COc1cc(N)c(Cl)cc1C(=O)NC1CCN2C(C)CCCC2C1 (stereo in doubt) has what ED50?
[reply] 25

---

- Test system: Mus musculus
- test.details: Dopamine antagonist activity expressed as inhibition of apomorphine-induced climbing in mice, subcutaneous administration
- Format: functional
- experimental.setup: Mus musculus, sc; read-out: ED50
attribute.measured: ED50 (mg/kg)
Field: numeric (mg/kg). Do not append units.

Here's what some known entries look like.
- compound: "COc1cc(N)c(Cl)cc1C(=O)NC1CCN2C(C)CCC2C1 (centres undefined)"
  target.of.assay: "Mus musculus"
  ED50 / mg/kg: 15
- compound: "CCN(CC)CCNC(=O)c1cc(Cl)c(N)cc1OC [METOCLOPRAMIDE]"
  target.of.assay: "Mus musculus"
  ED50 / mg/kg: 0.8

[ask] Give ED50 (Mus musculus) of the following compound: COc1cc(N)c(Cl)cc1C(=O)NC1CCN2C(CCCC2c2ccccc2)C1 (stereo in doubt; 21)
[reply] 5

[ask] Would you kindly repeat that for COc1cc(N)c(Cl)cc1C(=O)NC1CCN2CCCC12 (centres undefined) ?
[reply] 7.5

[ask] Would you kindly repeat that for COc1cc(N)c(Cl)cc1C(=O)NCC1CCC2CCCCN21 (single isomer, unassigned) ?
[reply] 15

---

- test.details: Selectivity at Dopamine receptors compared to 5-HT receptors.
- Assay type: functional
Reported Ratio values follow for various compounds

- compound: "CCCC1CCCC2CC(NC(=O)c3cc(Cl)c(N)cc3OC)CCN12 (stereo not given)"
  Ratio: "> 10"
- compound: "COc1cc(N)c(Cl)cc1C(=O)NC1CC(C)N2CCCC2C1 (stereo in doubt; 27)"
  Ratio: 10
- compound: "COc1cc(N)c(Cl)cc1C(=O)NC1CCN2CCCC12 (stereo not given)"
  Ratio: 15
- compound: "COc1cc(N)c(Cl)cc1C(=O)NC1CCN2CCCC2C1 (stereo in doubt; 9 (Ax))"
  Ratio: 60
- compound: "COc1cc(N)c(Cl)cc1C(=O)NC[C@H]1CCC2CCCCN2C1 (stereo not given in full)"
  Ratio: "> 125"

[ask] Entry COc1cc(N)c(Cl)cc1C(=O)NC1CCCN2CCCCC2C1 (single isomer, unassigned; form 1) has what Ratio?
[reply] > 50

[ask] Would you kindly repeat that for COc1cc(N)c(Cl)cc1C(=O)NC1CCN2C(C)CCCC2C1 (stereo in doubt) ?
[reply] 50

[ask] Would you kindly repeat that for COc1cc(N)c(Cl)cc1C(=O)NC1CC(C)N2CCCC2C1 (stereo in doubt; 28) ?
[reply] 50

[ask] Would you kindly repeat that for COc1cc(N)c(Cl)cc1C(=O)NCC1CCC2CCCCN21 (single isomer, unassigned) ?
[reply] 75

[ask] Would you kindly repeat that for COc1cc(N)c(Cl)cc1C(=O)NC1CCCN2CCCC12 (stereo in doubt; 11 (Ax)) ?
[reply] 0.2

---

- System: Mus musculus
- test.details: Dopamine antagonist activity expressed as inhibition of apomorphine-induced climbing in mice, subcutaneous administration
- Type: functional
Reported ED50 values follow for various compounds
Field: numeric (mg/kg). Do not append units.

Here's what some known entries look like.
- compound: "COc1cc(N)c(Cl)cc1C(=O)NC1CCN2C(C)CCCC2C1 (stereo in doubt; 2)"
  target.of.assay: "Mus musculus"
  ED50 / mg/kg: 25
- compound: "COc1cc(N)c(Cl)cc1C(=O)NC1CCCN2CCCC12 (stereo in doubt; 11 (Ax))"
  target.of.assay: "Mus musculus"
  ED50 / mg/kg: 0.1

[ask] Entry COc1cc(N)c(Cl)cc1C(=O)NC1CCN2C(CCCC2c2ccccc2)C1 (stereo in doubt; 22) has what ED50?
[reply] 5

---

- System: Rattus norvegicus
- test.details: Prokinetic activity expressed as stimulation of intragastric pressure in rat at the lowest active dose in mg/kg on subcutaneous administration.
- Type: functional
attribute.measured: Activity (mg/kg)
Field: numeric (mg/kg). Do not append units.

- compound: "COc1cc(N)c(Cl)cc1C(=O)NC1CCCN2CCCC12 (stereo in doubt; 11 (Ax))"
  Activity [mg/kg]: 0.5
- compound: "COc1cc(N)c(Cl)cc1C(=O)NC1CCN2CCCCC12 (single isomer, unassigned)"
  Activity [mg/kg]: 0.5
- compound: "COc1cc(N)c(Cl)cc1C(=O)NC1CCN2C(C)CCCC2C1 (stereo in doubt) [BRL-20627]"
  Activity [mg/kg]: 0.5
- compound: "COc1cc(N)c(Cl)cc1C(=O)NC1CCN2CCCCC12 (stereo in doubt)"
  Activity [mg/kg]: 1
- compound: "COc1cc(N)c(Cl)cc1C(=O)NC1CC(C)N2CCCC2C1 (stereo in doubt; 28)"
  Activity [mg/kg]: 1
- compound: "COc1cc(N)c(Cl)cc1C(=O)NC1CCN2CCCC12 (stereo not drawn)"
  Activity [mg/kg]: 0.5
- compound: "COc1cc(N)c(Cl)cc1C(=O)NC1CCCN2CCCCC2C1 (single isomer, unassigned; form 1)"
  Activity [mg/kg]: 1
- compound: "COc1cc(N)c(Cl)cc1C(=O)NCC1CCC2CCCCN21 (single isomer, unassigned)"
  Activity [mg/kg]: 0.2

[ask] Entry COc1cc(N)c(Cl)cc1C(=O)NCC1CCC2CCCCN2C1 (stereo not drawn) has what Activity?
[reply] 5

[ask] Would you kindly repeat that for COc1cc(N)c(Cl)cc1C(=O)NC[C@H]1CCC2CCCCN2C1 (stereo partly drawn) ?
[reply] 0.2

[ask] Would you kindly repeat that for COc1cc(N)c(Cl)cc1C(=O)NC1CCN2CCCC2C1 (stereo in doubt; 9 (Ax)) ?
[reply] 0.2

[ask] Would you kindly repeat that for COc1cc(N)c(Cl)cc1C(=O)NC1CCN2CCCC2C1 (stereo in doubt; 8 (Eq)) ?
[reply] 5

[ask] Would you kindly repeat that for CCN(CC)CCNC(=O)c1cc(Cl)c(N)cc1OC [METOCLOPRAMIDE] ?
[reply] 1

[ask] Would you kindly repeat that for COc1cc(N)c(Cl)cc1C(=O)NC1CCN2C(C)CCC2C1 (stereo not drawn) ?
[reply] 0.5

[ask] Would you kindly repeat that for COc1cc(N)c(Cl)cc1C(=O)NC1CCN2CC(C)CCC2C1 (stereo in doubt; 18) ?
[reply] 5
